Values were extracted from patent US7560468B2.

Each entry below carries its recorded BTX Inhibition.
# System: batrachotoxin (BTX) binding site of the sodium channel
# RUN_DESCRIPTION: Affinity to the batrachotoxin (BTX) binding site of the sodium channel
# CONDITION_DESCRIPTION: rat cerebrocortex synaptosomes, [3H]-batrachotoxinin A20 α-benzoate 10 nM; test concentration not given
// keep it numeric: no unit symbol after the value

COMPOUND	BTX Inhibition
CCOC(=O)CN1C(=O)C(CCSC)NC12CCN(C(=O)Nc1ccccc1)CC2 (stereo not shown)	32
CC(=O)c1cccc(NC(=S)N2CCC3(CC2)NC(Cc2ccccc2)C(=O)N3Cc2ccccc2F)c1 (stereo not shown)	63
COC(=O)c1ccc(CN2C(=O)C(C(C)C)NC23CCN(C(=S)Nc2c(F)c(F)c(F)c(F)c2F)CC3)cc1 (stereo not shown)	42
COc1ccc(S(=O)(=O)N2CCC3(CC2)NCC(=O)N3Cc2ccccc2F)cc1	42
CCCCS(=O)(=O)N1CCC2(CC1)NCC(=O)N2Cc1ccc(C(=O)OC)cc1	31
CSCCC1NC2(CCN(C(=S)Nc3cccc(C(C)=O)c3)CC2)N(Cc2ccc3ccccc3c2)C1=O (stereo not shown)	64
CCCCN1C(=O)C(C(C)C)NC12CCN(C(=S)Nc1cccc(C)c1)CC2 (stereo not shown)	41
CSCCC1NC2(CCN(C(=O)Nc3cccc(C(C)=O)c3)CC2)N(Cc2ccccc2)C1=O (stereo not shown)	40
CSCCC1NC2(CCN(C(=S)NC(C)c3ccccc3)CC2)N(Cc2ccc(F)cc2)C1=O (stereo not shown)	70
CSCCC1NC2(CCN(S(=O)(=O)N(C)C)CC2)N(Cc2ccc3ccccc3c2)C1=O (stereo not shown)	62

Recorded BTX Inhibition for CCCCN1C(=O)C(C(C)C)NC12CCN(C(=S)Nc1ccccc1C(=O)OC)CC2 (stereo not shown) , please? 51

Recorded BTX Inhibition for CSCCC1NC2(CCN(C(=O)Nc3cccc(C#N)c3)CC2)N(Cc2ccccc2)C1=O (stereo not shown) , please? 41

Recorded BTX Inhibition for CSCCC1NC2(CCN(C(=S)NCc3ccc(Cl)cc3)CC2)N(C)C1=O (stereo not shown) , please? 44

Recorded BTX Inhibition for CSCCC1NC2(CCN(C(=S)NCc3ccc(Cl)cc3)CC2)N(Cc2cccc(C#N)c2)C1=O (stereo not shown) , please? 72

Recorded BTX Inhibition for CCCCN1C(=O)C(C(C)C)NC12CCN(C(=S)Nc1ccccc1)CC2 (stereo not shown) , please? 30

Recorded BTX Inhibition for CCOC(=O)CN1C(=O)C(Cc2ccccc2)NC12CCN(S(=O)(=O)c1ccccc1S(C)(=O)=O)CC2 (stereo not shown) , please? 31

====

# MEASUREMENT_TARGET: 5-HT transporter (Rattus norvegicus)
# Construct: from tissue; host or cells: rat brain synaptosomes (marrow/medulla and pons), P2 fraction
# Sequence (P31652 whole entry): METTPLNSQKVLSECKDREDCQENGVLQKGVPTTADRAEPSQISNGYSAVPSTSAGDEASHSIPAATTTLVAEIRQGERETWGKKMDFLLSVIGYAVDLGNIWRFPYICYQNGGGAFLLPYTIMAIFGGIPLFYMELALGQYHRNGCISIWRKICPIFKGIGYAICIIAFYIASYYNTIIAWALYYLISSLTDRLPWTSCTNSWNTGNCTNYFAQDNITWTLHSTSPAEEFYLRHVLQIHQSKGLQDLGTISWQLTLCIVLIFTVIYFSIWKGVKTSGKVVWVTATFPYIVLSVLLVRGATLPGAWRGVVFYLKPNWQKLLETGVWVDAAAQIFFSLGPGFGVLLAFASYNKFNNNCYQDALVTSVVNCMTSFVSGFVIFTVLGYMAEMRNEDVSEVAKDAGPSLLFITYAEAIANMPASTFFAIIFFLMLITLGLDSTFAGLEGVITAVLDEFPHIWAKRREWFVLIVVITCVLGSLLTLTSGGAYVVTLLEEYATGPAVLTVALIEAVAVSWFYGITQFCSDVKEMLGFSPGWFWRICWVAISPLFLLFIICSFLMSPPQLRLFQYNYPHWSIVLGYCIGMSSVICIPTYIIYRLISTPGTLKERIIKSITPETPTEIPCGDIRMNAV
# RUN_DESCRIPTION: Inhibition of 5-HT uptake in synaptosomes
# Assay type: biochemical
# CONDITION_DESCRIPTION: rat, 1 μM
OBSERVED_PROPERTY: Uptake_5-HT, rat, 1 μM, % inhibition (%)
Output spec: scalar in %, unitless text.

Worked cases, answers included:
COMPOUND	MEASUREMENT_TARGET	READOUT_UNIT	MEASURED
CSCCC1NC2(CCN(S(=O)(=O)c3cc(C)c(Cl)cc3C)CC2)N(Cc2ccc(F)cc2)C1=O (stereo not shown)	5-HT transporter (Rattus norvegicus)	%	68
COc1ccccc1NC(=S)N1CCC2(CC1)NC(Cc1ccccc1)C(=O)N2Cc1ccccc1F (stereo not shown)	5-HT transporter (Rattus norvegicus)	%	86
CCCCOc1ccc(S(=O)(=O)N2CCC3(CC2)NCC(=O)N3Cc2ccccc2C#N)cc1	5-HT transporter (Rattus norvegicus)	%	30

The record that follows has no Uptake_5-HT, rat, 1 μM, % inhibition shown yet.
Recorded Uptake_5-HT, rat, 1 μM, % inhibition for CCOC(=O)CN1C(=O)C(Cc2ccccc2)NC12CCN(S(=O)(=O)c1ccc(F)c(Cl)c1)CC2 (stereo not shown) , please? 62

====

# System: batrachotoxin (BTX) binding site of the sodium channel
# RUN_DESCRIPTION: Affinity to the batrachotoxin (BTX) binding site of the sodium channel
# CONDITION_DESCRIPTION: rat cerebrocortex synaptosomes, [3H]-batrachotoxinin A20 α-benzoate 10 nM; test concentration not given
Parameter class (string): assigned from measured BTX Inhibition. Ranges: low bin: < 40; mid bin: ≥ 40 and < 70; high bin: ≥ 70

MOLECULE	CLASS_ASSIGNMENT
O=C1C(Cc2ccccc2)NC2(CCN(S(=O)(=O)c3ccccc3C(F)(F)F)CC2)N1Cc1ccccc1F (stereo not shown)	high bin
CC(C)C1NC2(CCN(C(=S)Nc3cc(Cl)cc(Cl)c3)CC2)N(Cc2ccccc2)C1=O (stereo not shown)	mid bin

Which BTX Inhibition band matches CCCCN1C(=O)C(CCSC)NC12CCN(C(=O)Nc1ccc(OCC)cc1)CC2 (stereo not shown) ? mid bin

====

Each entry below carries its recorded Inhibition CB2 10 μM, % inhibition.
# MEASUREMENT_TARGET: human CB2 receptor (Homo sapiens, UniProt P34972)
# Sequence (P34972 whole entry): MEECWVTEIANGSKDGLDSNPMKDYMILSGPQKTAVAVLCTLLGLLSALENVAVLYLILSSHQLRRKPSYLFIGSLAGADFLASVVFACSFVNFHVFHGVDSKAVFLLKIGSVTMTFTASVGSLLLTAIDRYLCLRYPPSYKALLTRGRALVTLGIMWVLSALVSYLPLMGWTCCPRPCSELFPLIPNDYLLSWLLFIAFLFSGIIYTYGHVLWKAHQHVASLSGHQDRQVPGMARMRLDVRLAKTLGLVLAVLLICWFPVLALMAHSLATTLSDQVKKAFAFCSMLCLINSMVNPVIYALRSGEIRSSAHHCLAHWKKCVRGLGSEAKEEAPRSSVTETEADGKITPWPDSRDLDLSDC
# RUN_DESCRIPTION: Affinity to the cannabinoid receptor CB2, displacement of [3H]-CP 55,940
# CONDITION_DESCRIPTION: 10 μM, membranes of HEK 293EBNA cells with human CB2 receptor
Output spec: scalar in %, unitless text.

COMPOUND	Inhibition CB2 10 μM, % inhibition [%]
CSCCC1NC2(CCN(C(=S)Nc3cc(C(F)(F)F)ccc3Cl)CC2)N(Cc2ccccc2C#N)C1=O (stereo not drawn) [Example 147]	48

Recorded Inhibition CB2 10 μM, % inhibition for CC(C)C1NC2(CCN(S(=O)(=O)c3ccccc3Cl)CC2)NC1=O (stereo not drawn) [Example 8] , please? 41

Recorded Inhibition CB2 10 μM, % inhibition for O=C1C(Cc2ccccc2)NC2(CCN(C(=S)Nc3cc(C(F)(F)F)ccc3Cl)CC2)N1Cc1ccccc1F (stereo not drawn) [Example 188] , please? 49

Recorded Inhibition CB2 10 μM, % inhibition for CCOC(=O)CN1C(=O)C(Cc2ccccc2)NC12CCN(S(=O)(=O)c1ccc(OC)cc1)CC2 (stereo not drawn) [Example 50] , please? 52

====

# MEASUREMENT_TARGET: human CB2 receptor (Homo sapiens, UniProt P34972)
# RUN_DESCRIPTION: Affinity to the cannabinoid receptor CB2, displacement of [3H]-CP 55,940
# CONDITION_DESCRIPTION: read-out: Inhibition CB2 10 μM, % inhibition
OBSERVED_PROPERTY: inhibition at 10 µM (%)
Output spec: scalar in %, unitless text.

Worked cases, answers included:
COMPOUND	MEASUREMENT_TARGET	OBSERVED_PROPERTY	MEASURED
CSCCC1NC2(CCN(C(=S)NCc3ccc(F)cc3)CC2)N(Cc2ccc(F)cc2)C1=O (stereo not shown) [Example 182]	human CB2 receptor (Homo sapiens, UniProt P34972)	inhibition at 10 µM	64
CC(C)C1NC2(CCN(C(=S)NCc3ccc(F)cc3)CC2)N(Cc2ccccc2)C1=O (stereo not shown) [Example 179]	human CB2 receptor (Homo sapiens, UniProt P34972)	inhibition at 10 µM	43
O=C1C(Cc2ccccc2)NC2(CCN(S(=O)(=O)c3cccs3)CC2)N1Cc1ccccc1 (stereo not shown) [Example 16]	human CB2 receptor (Homo sapiens, UniProt P34972)	inhibition at 10 µM	58
CCCCN1C(=O)C(C(C)C)NC12CCN(C(=S)NC(C)C)CC2 (stereo not shown) [Example 107]	human CB2 receptor (Homo sapiens, UniProt P34972)	inhibition at 10 µM	56
O=C1C(Cc2ccccc2)NC2(CCN(S(=O)(=O)c3cc(Cl)sc3Cl)CC2)N1Cc1ccccc1 (stereo not shown) [Example 20]	human CB2 receptor (Homo sapiens, UniProt P34972)	inhibition at 10 µM	66

Recorded inhibition at 10 µM for O=C1C(Cc2ccccc2)NC2(CCN(C(=S)NCC3CCCCC3)CC2)N1Cc1ccccc1F (stereo not shown) [Example 171] , please? 41

Recorded inhibition at 10 µM for CS(=O)(=O)N1CCC2(CC1)NC(Cc1ccccc1)C(=O)N2Cc1ccccc1 (stereo not shown) [Example 246] , please? 50

====

# MEASUREMENT_TARGET: human CB2 receptor (Homo sapiens, UniProt P34972)
# RUN_DESCRIPTION: Affinity to the cannabinoid receptor CB2, displacement of [3H]-CP 55,940
# CONDITION_DESCRIPTION: 10 μM, membranes of HEK 293EBNA cells with human CB2 receptor
OBSERVED_PROPERTY: Inhibition CB2 10 μM, % inhibition

Worked cases, answers included:
COMPOUND	Inhibition CB2 10 μM, % inhibition
CCCCN1C(=O)C(Cc2ccccc2)NC12CCN(S(=O)(=O)c1cccc(Cl)c1)CC2 (stereo not shown)	40%
CSCCC1NC2(CCN(S(=O)(=O)c3ccc(F)cc3F)CC2)N(Cc2cc(C)cc(C)c2)C1=O (stereo not shown)	48%
CSCCC1NC2(CCN(S(=O)(=O)c3ccccc3Cl)CC2)N(Cc2ccccc2[N+](=O)[O-])C1=O (stereo not shown)	56%
C=CCN1C(=O)C(CCSC)NC12CCN(S(=O)(=O)c1ccccc1S(C)(=O)=O)CC2 (stereo not shown)	56%
CCOc1ccc(NC(=O)N2CCC3(CC2)NC(CCSC)C(=O)N3Cc2ccc3ccccc3c2)cc1 (stereo not shown)	49%
CCCCN1C(=O)C(Cc2ccccc2)NC12CCN(S(=O)(=O)c1ccc(C(C)(C)CC)cc1)CC2 (stereo not shown)	40%

The record that follows has no Inhibition CB2 10 μM, % inhibition shown yet.
Recorded Inhibition CB2 10 μM, % inhibition for O=C1C(Cc2ccccc2)NC2(CCN(S(=O)(=O)c3ccc([N+](=O)[O-])cc3)CC2)N1Cc1ccccc1 (stereo not shown) , please? 62%
